Assign TGI to each entry below.
Test system: SN12C renal
protocol.notes: NCI tumour cell line growth inhibition, 48 h

Sample answers from the record:
COc1ccc(Oc2nc3cc(C(F)(F)F)ccc3nc2C(C)C)cc1 | 59.7 µM
C#CCCCCC#CC1CCCC1C1=CC(=O)c2ccccc21 (configuration not stated) | 19.4 µM

Need TGI for each of these compounds.
1. CN1CCN(c2ccc3nc(-c4ccc5nc(-c6ccc(C(F)(F)F)cc6)[nH]c5c4)[nH]c3c2)CC1
2. COC(=O)c1ccc(/C=N/c2cc(C)nn2-c2ccccc2)cc1
3. CCCN(CCC)C(=O)Cc1c2n(c3ccccc13)CCCc1ccccc1-2
4. COc1ccc(C(F)(F)F)cc1NC(=O)O/N=C(/Cl)C(C)C
5. S=C1SC2(CCCCCC2)NC2=C1CCCCC2
6. CN1NC(c2ccccc2)=C(C#N)C(=O)CC1c1ccccc1Cl (configuration not stated)
7. COc1ccccc1NC(=O)N/C(N)=N/c1nc2ccccc2s1
8. CCN(CC)CCNc1ccc(CO)c2sc3ccccc3c(=O)c12

1. 3.96 µM
2. > 100 µM
3. 29.2 µM
4. 32.2 µM
5. > 100 µM
6. > 100 µM
7. > 100 µM
8. 20 µM [middle of 4 runs]

Need TGI for each of these compounds.
1. CCC1(c2ccncc2)CCC(=O)NC1=O (configuration not stated)
2. S=C(NNC1=NCCCCN1)Nc1ccccc1

1: > 100 µM; 2: > 100 µM

====

System: KM12 colon
protocol.notes: NCI tumour cell line growth inhibition, 48 h
recorded.endpoint: TGI

O=C(CCNC(=O)OCc1ccccc1)OCCCNC(=O)OCc1ccccc1 | > 100 µM
CC1(Br)C(=O)NC(=O)N([C@H]2C[C@H](O)[C@@H](CO)O2)C1N=[N+]=[N-] (stereo not given in full) | > 100 µM
COc1cccc2c1C(=O)c1c(O)c3c(c(O)c1C2=O)C[C@@](O)(C(=O)COC(=O)c1cccnc1)C[C@@H]3OC1CC(N)C(O)C(C)O1 (stereo not given in full) | 8.44 µM

Need TGI for each of these compounds.
1. CCCCCCc1ccc(O)cc1O
2. c1ccc(N=C2SC(c3ccccc3)CN2C23CC4CC(CC(C4)C2)C3)cc1 (stereo not given)

1. > 100 µM
2. > 100 µM

====

Test system: MDA-MB-231 breast
protocol.notes: NCI tumour cell line growth inhibition, 48 h; in the data active = GI50 below about 0.43 µM; inactive = the rest
Just give me one of these, please: active, inactive

Worked examples follow.
O=c1cc(-c2ccccc2)oc2cc(OCc3cn(Cc4ccc(F)cc4)nn3)cc(O)c12 | inactive
COc1cccc2c1C(=O)c1c(O)c3c(c(O)c1C2=O)C[C@@](O)(C(=O)COC(=O)c1cccnc1)C[C@@H]3OC1CC(N)C(O)C(C)O1 (some centres undefined) | active

Hi, do you know how O=C(Oc1ccccc1Cl)c1cccnc1Nc1ccnc(C(F)(F)F)c1 came out in this test?
inactive

Hi, do you know how C[C@]1(O)CC(=O)[C@]2(O)C3=C(C=C[C@]2(O)C1)C(=O)c1c(O)cccc1C3=O came out in this test?
inactive

====

Tested on: UACC-62 melanoma
protocol.notes: NCI tumour cell line growth inhibition, 48 h
recorded.endpoint: TGI

Sample answers from the record:
Nc1nc(N)c2ncn(Cc3c(Cl)cccc3Cl)c2n1 | > 100 µM
CCOC(=O)C1C(=O)CC(C)(O)C(C(=O)OCC)C1c1ccc(O)c(OC)c1 (stereo not given) | > 100 µM
O=c1c2cc(-c3ccccc3)sc2nc2sc(-c3ccccc3)nn12 | > 100 µM
CCCCCCCCCCCCCC/C(=C/OCC[N+](C)(C)C)OC(C)=O (tested in a mixture with another compound) | 5.25 µM
CN[C@@H]1[C@H](O)[C@H](NC)[C@H]2O[C@@]3(O)C(=O)C[C@@H](C)O[C@H]3O[C@@H]2[C@H]1O | > 100 µM

Need TGI for each of these molecules.
1. CCCCCCc1ccc(O)cc1O
2. CCOc1ccccc1N=C(NC(=O)CC)SC
3. CCCCCCCCCCSS(=O)(=O)c1ccc(C)cc1
4. Cn1cc(C=C(C#N)C#N)c(=O)n(C)c1=O
5. COc1cc(/C=C\c2cc(/C=C\c3ccc(O)c(OC)c3)n(C(=O)Nc3ccc(C(F)(F)F)cc3)n2)ccc1O

1. > 79.1 µM
2. > 100 µM
3. 16.1 µM
4. > 100 µM
5. 4.76 µM

====

System: HOP-62 NSCLC
protocol.notes: NCI tumour cell line growth inhibition, 48 h
recorded.endpoint: TGI

Sample answers from the record:
COc1cc(C)c(N(C)C(=O)CN(C)C)cc1Nc1nc(Nc2cccc(F)c2C(N)=O)c2cc[nH]c2n1 | > 25 µM
O=C1CC(CC(O)C(O)CO)CC(=O)N1 (stereo unspecified) | > 100 µM
COC(=O)[C@@H]1C[C@H]2[C@H](c3ccccc3Br)[C@@H](OC(C)=O)[C@@H](OCc3ccccc3)ON2O1 | > 100 µM
NC(N)=NS(=O)(=O)c1ccc(NC(=O)c2ccc(Cl)c3c(Nc4ccc(S(=O)(=O)N=C(N)N)cc4)c4ccccc4nc23)cc1 | > 100 µM
COC(=O)c1c(C)cccc1C1CN=NC12Cc1c(C)cccc1C2=O (stereo unspecified) | > 100 µM

Need TGI for each of these compounds.
1. CNC1=C(Br)C(=O)C2=C(C1=O)C1C3=C(C(=O)C=CC3=O)C2c2ccccc21 (stereo unspecified)
2. Cc1ccc2nc(NC(=O)CSC(=S)N3CCN(Cc4ccccc4)CC3)sc2c1
3. c1ccc2c(c1)[Se]c1ccccc1[Se]2

1. 23.6 µM
2. > 100 µM
3. > 100 µM

Need TGI for each of these compounds.
1. COc1ncnc2c1ncn2C/C(Br)=C(\Br)CCl
2. Cc1nc(SCC(=O)Nc2ccccc2)c2sc(=S)n(-c3ccccc3)c2n1
3. C#CCCCCC#CC1CCCC1C1=CC(=O)c2ccccc21 (stereo unspecified)
4. CC(C)[C@H](COC(C)(C)C)N=CN1CSc2ccccc21
5. C[C@]1(O)CC(=O)[C@]2(O)C3=C(C=C[C@]2(O)C1)C(=O)c1c(O)cccc1C3=O
6. COc1ccc2c3c([nH]c2c1[N+](=O)[O-])C(C)N(C(=O)/C=C/c1ccccc1)CC3 (stereo unspecified)
7. CNNC1=NS(=O)(=O)c2cc(C(=O)OC)c(Cl)cc2S1

14.1 µM
> 10 µM
20.3 µM
> 100 µM
42.6 µM
70.4 µM
> 10 µM

Need TGI for each of these compounds.
1. Nc1nc(N)c2ncn(Cc3c(Cl)cccc3Cl)c2n1
2. COc1cc(C(CN)N(C)C)cc(OC)c1OC (stereo unspecified)

1: > 100 µM; 2: > 100 µM

Need TGI for each of these compounds.
1. COc1ccc2c(CCNS(=O)(=O)c3ccccc3)c(C(C)=O)[nH]c2c1[N+](=O)[O-]
2. C[C@@H]1O[C@@H]2OCC[C@@H]2C2=C1C(=O)c1ccccc1C2=O
3. CCCCCCCCCCSS(=O)(=O)c1ccc(C)cc1
4. O=c1c2cc(-c3ccccc3)sc2nc2sc(-c3ccccc3)nn12

> 100 µM
31.5 µM
40.1 µM
> 100 µM

====

Tested on: CCRF-CEM leukemia
protocol.notes: NCI tumour cell line growth inhibition, 48 h
Assign GI50 to each entry below.

COc1cc(C)c(N(C)C(=O)CN(C)C)cc1Nc1nc(Nc2cccc(F)c2C(N)=O)c2cc[nH]c2n1 | > 19.3 µM

Need GI50 for each of these compounds.
1. COc1cc(C(C)c2cc3c(cc2OCCOCCOc2cc4c(cc2C(C)c2cc(OC)c(OC)c(OC)c2)OCO4)OCO3)cc(OC)c1OC (centres undefined)
2. COc1cccc(NC(=O)c2ccc(C(F)(F)F)nc2Nc2ccc(Cl)cc2C)c1
3. CCCCCCCCOC(=O)c1cc(O)c(O)c(O)c1

1: > 100 µM; 2: 11.1 µM; 3: 0.314 µM

====

Test system: NCI-H226 lung
protocol.notes: NCI tumour cell line growth inhibition, 48 h
recorded.endpoint: GI50

Sample answers from the record:
Cc1cc2cc(Oc3ccnc(Nc4cccc(CS(=O)(=O)NCCN(C)C)c4)n3)ccc2[nH]1 | 7.25 µM
O=C(/C=C/c1ccccc1)c1ccc(O)c(CN2CCN(c3cc4c(cc3F)c(=O)c(C(=O)O)cn4C3CC3)CC2)c1 | 3.54 µM
CC(=O)[CH-]C(=O)c1ccccc1.CC(=O)[CH-]C(=O)c1ccccc1.CC(C)CCCC(C)[C@H]1CCC2[C@@H]3CCC4C[C@@H]([O-])CC[C@]4(C)C3CC[C@@]21C.CC(C)CCCC(C)[C@H]1CCC2[C@@H]3CCC4C[C@@H]([O-])CC[C@]4(C)C3CC[C@@]21C.Cl.[Ti+4] (stereo partly drawn) | > 25 µM
CCOc1ccc2c(-c3ccnc(Nc4cccc(C(F)(F)F)c4)n3)cnn2n1 | > 25 µM
COc1cc2c(c(OC)c1OC)C(=O)c1c-2n(CCCN)c(=O)c2cc([N+](=O)[O-])ccc12 | 19 µM

Need GI50 for each of these compounds.
1. CC(=O)OC1C(O)COC(Oc2c(C)c3c4c(c2O)[C@@H](C)CC[C@@H]4[C@@H](C)C[C@H]3C=C(C)C)C1O (stereo partly drawn)
2. CC(=O)[CH-]C(=O)c1ccccc1.CC(=O)[CH-]C(=O)c1ccccc1.[O-]c1ccc(O)cc1.[O-]c1ccc(O)cc1.[Ti+4]
3. CN1CCN(c2ccc(NC3=C(Cl)C(=O)c4ncccc4C3=O)cc2C(F)(F)F)CC1

24.5 µM
15 µM
13 µM
